REPORTED_PROPERTY: melting point

IN: Form field: reported melting point of Cc1ccc(C(=O)N2CCc3nnc(NN)cc3C2)cc1
OUT: 207 to 210 °C

IN: Lookup CC1(C)CCC(C)(C)c2cc(S(=O)Cc3ccc(C(=O)O)cc3)ccc21 (centres undefined)
OUT: 198 to 200 °C

IN: Lookup O=C(c1cc2cc(Br)ccc2o1)C12CC3CC(CC(C3)C1)C2
OUT: 115 to 117 °C

IN: Lookup Cc1oc(-c2ccccc2)nc1CCOc1ccc(C[C@H](NC(=O)C(F)=Cc2ccccc2)C(=O)O)cc1
OUT: 174 to 176 °C

IN: Lookup CNC1(c2ccccc2)CCC(c2[nH]c3ccccc3c2CCc2ccncc2)CC1 (centres undefined)
OUT: 224 to 227 °C

IN: Lookup CCOC(=O)c1c(C)cc2c(c1C)c(=O)n(-c1ccccc1Cl)c(=O)n2CC(=O)N(CC)CC
OUT: 228 to 229 °C

IN: Lookup COC12CC(CO)CN(C)C1Cc1cn(C(C)(C)C)c3cccc2c13 (centres undefined)
OUT: 172 to 174 °C

IN: Lookup OCCNc1nc2ccc(Cl)cc2c2nc(-c3ccco3)nn12
OUT: 214 to 217 °C

IN: Lookup Cc1[nH]c(C)c(-c2ccc(Oc3ccc(C(F)(F)F)cc3)cc2)c(=O)c1Br
OUT: 304 to 305 °C

====

# melting point listing for each entry below

| COMPOUND | melting point |
| --- | --- |
| CN(C)C(=O)Oc1ccc(C=O)c(O)c1 | 58 to 60 °C |
| CCSC1CCC2C3CCC4=CC(=O)C=CC4(C)C3(F)C(O)CC12C (configuration not stated) | 196 to 197 °C |
| NS(=O)(=O)c1ccc(N2CN(c3ccccc3)CC2=O)cc1Cl | 257 to 259 °C |
| OC1(c2ccc(Br)cc2)CCC2(CC1)OCCO2 | 156 to 158 °C |
| CN[C@H](Cc1ccc2ccccc2c1)C(=O)N1CCN(S(C)(=O)=O)C[C@H]1Cc1ccccc1 | 165 to 168 °C |
| CN1c2ccc(Cl)cc2C(c2ccccc2Cl)=Nc2cccnc21 | 150 to 152 °C |
| CC1(C)CC(OC(=O)c2ccccc2)CC(C)(C)N1O | 145 to 149 °C |
| NC(=O)Cn1c(-c2ccc(Cl)cc2)nc2ncccc21 | 280 to 283 °C |

IN: Form field: reported melting point of Cc1ccn2c(C)c(-c3ccc4sc(=O)n(C)c4c3)nc2c1
OUT: 204 to 206 °C

====

# melting point listing for each entry below

Here's what some known entries look like.
| CHEMICAL_SMILES | RECORDED_VALUE |
| --- | --- |
| CC(C)c1ccc(-c2cnc(-c3cccc(C(=O)O)c3)s2)cc1 | 218 to 220 °C |
| Cc1cccc(NC(=O)C=Cc2cn(C)nc2[N+](=O)[O-])n1 | 191 to 193 °C |
| O=C(O)CCC(=NOCc1ccc(OCc2cn3c(-c4ccccc4)cccc3n2)cc1)c1ccccc1 | 160 to 161 °C |
| N#Cc1c(N2CCN(C(=O)c3cccs3)CC2)c2cc(Cl)cnc2n(Cc2ccccc2)c1=O | 221 °C |
| Cc1ccc2c(c1)C=Cc1cc(C)ccc1C2c1cn(-c2ccnc(NCC(=O)Nc3nc(CC(=O)O)cs3)n2)c(=O)[nH]c1=O | 223 °C |

IN: Form field: reported melting point of CCCN1CCO[C@@H]2c3cc4c(=O)n(OC)ccc4cc3CC[C@H]21
OUT: 142 to 145 °C

IN: Lookup COc1ccc2c(C)c(C)oc2c1C=O
OUT: 88 °C

IN: Lookup CNC(=O)NCCn1c(-c2ccc(N3CCOCC3)cc2)csc1=Nc1ccc(F)cc1
OUT: 191 to 194 °C

IN: Lookup C=CCOC(=O)c1cc(NC(=O)OC(C)(C)C)ccc1OCC=C
OUT: 77 to 78 °C
